As shown below, each of these molecules has a reported Percent Effect value.
System: Wolbachia pipientis
Test: Anti-Wolbachia Cell-Based Screen
Type: functional
Set-up: scale not given: in the data most compounds retested in dose-response had high values
Settings: 5 µM
Screen size: about 48,000 compounds; about 13,000 (27%) showed an effect of 50% or more. The list shows a part of the results.
measure.name: Percent Effect (%)

                                    molecule    measure_name  unit_symbol  test_result
 0  COCc1nn(CC2CC2)c2c1CN(Cc1cccs1)CC2.O=C(O)C(F)(F)F  Percent Effect            %       -6.214
 1  Cn1cc(N2C[C@@H]3CN(CC4CCOCC4)C[C@@H]3C2=O)cn1.O=C(O)C(F)(F)F  Percent Effect            %       -5.316
 2   FC(F)(F)Oc1cccc(CNC[C@H]2Cn3ccnc3CO2)c1  Percent Effect            %       -15.74
 3  O=C(O)C(F)(F)F.c1csc(CN2CCCn3cnc(COCC4CC4)c3C2)c1  Percent Effect            %        -4.67
 4  CN1CCOC(CNCc2cccc(OCC(F)(F)F)c2)C1 (stereo unspecified)  Percent Effect            %       -1.081
 5                 CCOCc1nn(C)c2c1CN(CCO)CC2  Percent Effect            %        105.8
 6  Cn1cc(N2C(=O)CC[C@@H]3[C@H]2CCN3CC2CCOCC2)cn1.O=C(O)C(F)(F)F  Percent Effect            %        100.5
 7  CC(CCS(C)(=O)=O)NC(=O)NCc1ccc2c(c1)CCC2 (stereo unspecified)  Percent Effect            %        5.194
 8                   CCN1CCc2c(c(COC)nn2C)C1  Percent Effect            %       -29.06
 9         Cc1nc(NC(C)C)nc2c1CN(Cc1cccs1)CC2  Percent Effect            %       0.7721
10  Cn1nc(COCC2CC2)c2c1CCN(Cc1cccs1)C2.O=C(O)C(F)(F)F  Percent Effect            %        99.16

----------
Tested on: Wolbachia pipientis
Assay: Anti-Wolbachia Cell-Based Screen
Format: functional
Set-up: scale not given: in the data most compounds retested in dose-response had high values
Settings: 5 µM
Among all 48,000 compounds or so, about 13,000 (27%) showed an effect of 50% or more. The list shows a part of the results.
As shown below, each of these compounds has a reported Percent Effect value.
measure.name: Percent Effect (%)

>>> df
                                    compound          measured_on  test_result
 0  CN(C)CCCNCC1CCOC(C)(C)C1 (centres undefined)  Wolbachia pipientis        84.35
 1  CS(=O)(=O)c1ncc(CN2CCCC(C(N)=O)C2)n1CC1CCCCC1 (centres undefined)  Wolbachia pipientis        6.801
 2  CC(=O)N1CCCC1c1cccc(Cc2ccccc2F)n1 (centres undefined)  Wolbachia pipientis        1.098
 3  O=C(COc1ccccc1N1CCCC1)N1CCN[C@H]2CS(=O)(=O)C[C@H]21  Wolbachia pipientis       -3.795
 4  CC(O)CC(C)(C)CNS(=O)(=O)c1cccc(Cl)c1C#N (centres undefined)  Wolbachia pipientis        -3.91
 5  Cc1nccc([C@H]2C[C@@H]3CCN(S(=O)(=O)C4CC4)C[C@H]3O2)n1  Wolbachia pipientis        101.1
 6  CC(=O)N1CCCC2(C1)CN(c1nncs1)CCO2.O=C(O)C(F)(F)F (centres undefined)  Wolbachia pipientis          117
 7   CCCN1CCC(N2CCN(c3cc(C)nc(COC)n3)CC2)CC1  Wolbachia pipientis        -8.34
 8  O=C1CCC2(CCN(c3cccc(C(F)(F)F)n3)CC2)CN1CCO  Wolbachia pipientis        4.395
 9  O=C(C1CCOCC1)N1CC[C@H]2C[C@@H](c3ccncn3)O[C@@H]2C1  Wolbachia pipientis       -5.284
10  COCC(=O)N1CCC2(CC1)CCn1c(-c3cccc(OC)c3)cnc12  Wolbachia pipientis       -17.52
11   Cc1cccc(-c2nc(CN3CCc4cnc(C)nc4C3)no2)c1  Wolbachia pipientis       0.7919
12  O=C(O)C(F)(F)F.O=C(c1cscn1)N1CCc2ncc(CN3CCCC3)n2CC1  Wolbachia pipientis       -30.66
13                   CSCCCNc1ncnc2cccc(F)c12  Wolbachia pipientis       -37.93
14   Cc1nc(NC(=O)c2c(-n3cnnn3)sc3c2CCC3)sc1C  Wolbachia pipientis        89.24
15  Cc1nccc([C@@H]2C[C@H]3CN(S(=O)(=O)c4ccccc4)C[C@H]3O2)n1  Wolbachia pipientis         93.7
16  CC(C)CN1CCCC12CCN(c1nncs1)C2.O=C(O)C(F)(F)F (centres undefined)  Wolbachia pipientis        16.12
17  Cc1nc(C(=O)N(CC(=O)N(C)C)CC(F)(F)F)c2ccccn12  Wolbachia pipientis         1.81
18  Cc1ccc(CN(C)C(=O)CN2CCCCC2Cn2cncn2)cc1 (centres undefined)  Wolbachia pipientis       -11.49
19  CN(C)CCNCC1CCOC(C)(C)C1 (centres undefined)  Wolbachia pipientis        114.8
20  CCc1nc(C)c(CN2CCOC(Cc3cccc4ccccc34)C2)[nH]1 (centres undefined)  Wolbachia pipientis        10.02
21  CC(C)C(=O)N1CCCC2(C1)CN(c1nncs1)CCO2.O=C(O)C(F)(F)F (centres undefined)  Wolbachia pipientis        94.93
22  Cc1nccc([C@@H]2C[C@@H]3CCN(S(=O)(=O)C4CC4)C[C@H]3O2)n1  Wolbachia pipientis        103.3
23  O=C1CO[C@H]2CN(S(=O)(=O)c3ccccc3)C[C@H]2N1c1ccccc1  Wolbachia pipientis       -3.468
24  CC(C)C[C@H](NC(=O)CNC(=O)OC(C)(C)C)C(=O)OC(C)(C)C  Wolbachia pipientis        3.003
25          Cc1sc(-n2cnnn2)c(C(=O)NC(C)C)c1C  Wolbachia pipientis        78.35
26    CC(C)(C)OC(=O)NCCC(=O)N(CCC#N)Cc1ccco1  Wolbachia pipientis         11.1
27  Cc1nc(NC(=O)C(C)N2CCN(c3cnccn3)CC2)sc1C (centres undefined)  Wolbachia pipientis        1.711
28  CC(C#N)CN(C)C(=O)CCNC(=O)C(C)(C)C (centres undefined)  Wolbachia pipientis        107.7
29  Cc1nccc([C@@H]2C[C@@H]3CCN(S(=O)(=O)N(C)C)C[C@H]3O2)n1  Wolbachia pipientis        88.34
30  O=C1CO[C@H]2CN(S(=O)(=O)c3ccccc3)C[C@H]2N1Cc1ccccn1  Wolbachia pipientis        1.166
31  Cc1nc(NC(=O)c2c(-n3cnnn3)sc3c2CCCC3)sc1C  Wolbachia pipientis        119.6
32  O=C(O)C(F)(F)F.O=C(c1ccncc1)N1CCOC2(CCCN(c3nncs3)C2)C1 (centres undefined)  Wolbachia pipientis          123
33               CC(C)NC(=O)CNC(=O)OC(C)(C)C  Wolbachia pipientis       -14.72
34  CCC(C#N)NC(=O)CCNC(=O)C(C)(C)C (centres undefined)  Wolbachia pipientis       -9.888
35        COc1ccc(-n2nc(C)c(C(C)=O)c2C)cc1CO  Wolbachia pipientis       -7.291
36  CN(Cc1cccnc1)C[C@@H]1OC[C@H]2CN(C(=O)C3CC3)CC[C@H]21.O=C(O)C(F)(F)F.O=C(O)C(F)(F)F  Wolbachia pipientis       -11.76
37    Cc1nc(NC(=O)c2c(-n3cnnn3)sc(C)c2C)sc1C  Wolbachia pipientis        111.3
38  CC(C)CC(C#N)NC(=O)CCNC(=O)C(C)(C)C (centres undefined)  Wolbachia pipientis        9.809
39  COCC(=O)N1CCCC1c1cccc(Cc2ccccc2F)n1 (centres undefined)  Wolbachia pipientis          111
40  CC(O)CN(C)C(=O)CCNC(=O)OC(C)(C)C (centres undefined)  Wolbachia pipientis        96.59
41  O=C(O)C(F)(F)F.c1ccc(N2CCOC3(CCCN(c4nncs4)C3)C2)nc1 (centres undefined)  Wolbachia pipientis       -13.18
42  CC(C#N)CN(C)C(=O)CCNC(=O)OCC(F)(F)F (centres undefined)  Wolbachia pipientis        112.9
43  Cc1cc(C(=O)NC2CC(=O)N(C(C)C)C2=O)c(C)n1C(C)C (centres undefined)  Wolbachia pipientis       -25.95

From: ChEMBL document CHEMBL3988442
